Where do these numbers come from? They come from PubChem BioAssay (NCI).

Tested on: SK-OV-3 ovarian
test_protocol: NCI-60 one-dose screen, 48 h (100 = growth as untreated, 0 = no growth, -100 = all killed)
condition_details: 10 µM unless noted
Compounds without any hit were thinned out: in the full panel of roughly 83,000, 20% have a hit.
Listing: growth of selected molecules

structure_string | growth [%]
CCCCOC(=O)c1ccccc1C(=O)O.CCCCOC(=O)c1ccccc1C(=O)O.[Cu+2] | 93.4
CC(/C=N/N=C(N)N)=N/N=C(N)N | 97.2
O=C(Nc1ccc(S(=O)(=O)F)cc1)Oc1ccccc1 | 102

---

Test system: HL-60(TB) leukemia
test_protocol: NCI-60 one-dose screen, 48 h (100 = growth as untreated, 0 = no growth, -100 = all killed)
condition_details: 10 µM unless noted
The panel holds about 83,000 compounds, 20% with a hit somewhere; the sample as a whole holds those more often.
Mark True for reported growth of 20% or greater; mark False for anything smaller.

molecule | cat
COc1cc(OC)cc(-c2ccc(-c3ccc(C(=N)N)o3)o2)c1 | False
Cc1ccccc1OC(=O)c1cccc(Cl)c1 | True
O=C1NC(=S)NC(=O)C1=Cc1cn(Cc2cn(Cc3cccc4ccccc34)nn2)c2ccccc12 | True
CN=C1C=C/C(=N/N=c2/ccn(O)cc2C)C=C1C | True
Nc1ccc(S(=O)(=O)Nc2ccsc2-c2nc(-c3ccccc3)no2)cc1 | True
CCCCCCNC(=O)Oc1ccc(/C(=C(/CC)Cc2ccccc2)c2ccc(OCCN3CCCCC3)cc2)cc1 | True
COC(=O)/C=C1\Sc2cc(F)ccc2NC1=O | True
CC(=O)OCCOc1cc(Cl)c(Cl)cc1Cl | True
COc1ccc(NC(=O)c2sc3nc(C)c(C(=O)CCc4cccc(OC)c4)cc3c2N)cc1 | True
COc1cccc(/C(C)=N/NC(=O)CSc2nc3ccccc3c(=O)n2CCc2ccc(S(N)(=O)=O)cc2)c1 | True
O=C(CCCn1c(=O)c2sc3ccccc3c2n2nnc(-c3ccccc3)c12)NCCc1cnc[nH]1 | True
Nc1c(C(=O)Nc2ccccn2)sc2nc3c(cc12)C(O)CCC3 (centres undefined) | False
Cc1cccc(C)c1NCc1nnc(-c2ccco2)o1 | True
O=[N+]([O-])c1cccc([As]=[As]c2cccc([N+](=O)[O-])c2)c1 (centres undefined) | False
O=C(Nc1ccc(-n2cc(-c3ccncc3)c(-c3ccc(Cl)c(O)c3)n2)cc1)Nc1cc(C(F)(F)F)cc(C(F)(F)F)c1 | False
COc1ccc(-c2nc(Nc3nc4ccccc4[nH]3)nc(N)c2C#N)cc1 | True
O=Cc1cc2ccccc2nc1Oc1ccc(C(F)(F)F)cc1 | True
O=C1/C(=C/c2ccc(Cl)cc2)CN(Cc2cn(CCCNc3ccnc4cc(Cl)ccc34)nn2)C/C1=C\c1ccc(Cl)cc1 | False
CC1(C)CC[C@]2(CO)CC[C@]3(C)C(=CC[C@@H]4[C@@]5(C)CCNCC(C)(C)[C@@H]5CC[C@]43C)[C@@H]2C1 | True
Cc1ccccc1NC(=O)NC(CC(N)=O)c1ccc2c(c1)nc(-c1cccc(Oc3ccc(C(C)(C)C)cc3)c1)n2CCCN1CCCCC1C (centres undefined) | False
Cn1cc(-c2csc(-c3cn(C)c4ccccc34)n2)c2cnccc21 | False
CCCCCCCCCCCCC1CCC(=O)O1 (centres undefined) | True
O=c1[nH]nc(SC2CCCCC2)c(=O)[nH]1 | True
CO[C@@H](C(=O)N1Cc2[nH]nc(NC(=O)c3ccc(N4CCN(C)CC4)cc3)c2C1)c1ccccc1 | False
CCCOC(=O)c1ccc2c(c1)[N+](=O)C(C(=O)c1ccccc1)=C(C(F)(F)F)[N+]2=O | False
CC(C)(C)CC(C)(C)c1ccc(OCCSC(=N)N)cc1 | True
CCC[CH2][Sn]1([CH2]CCC)[O]C2C(CO)OC(n3ccc(N)nc3=O)C2[O]1 (centres undefined) | False
Clc1ccc2c(NCCCNC3CCCCC3)ccnc2c1 | True
CN1CCN(CCCNc2nccc(-c3c(-c4ccc(F)c(O)c4)nc4sccn34)n2)S1(=O)=O | True
